Attribute: chromatographic logP
Assay: log P by HPLC on a reversed-phase column (C 18), EEC Directive 79/831 Annex V.A8
Format: physicochemical
Details: logP
Reply: number alone, nothing else.

Past entries and their recorded results:
Req: Requested read-out: chromatographic logP. Entry: C=C(C)c1ccc(Cl)cc1CN(C(=O)c1c(C(F)F)nn(C)c1F)C1CC1
Resp: 3.96

Req: Requested read-out: chromatographic logP. Entry: CC(C)c1ccc(Cl)cc1CNC(=O)c1c(C(F)F)nn(C)c1F [Xa.1]
Resp: 3.46

New cases:
Req: Requested read-out: chromatographic logP. Entry: CC(C)c1ccc(-c2csc3ccccc23)cc1CN(C(=O)c1c(C(F)F)nn(C)c1F)C1CC1 [I.157]
Resp: 5.17

Req: Requested read-out: chromatographic logP. Entry: Cn1nc(C(F)F)c(C(=O)N(Cc2cc(Cl)ccc2C2(C)CO2)C2CC2)c1F (centres unmarked) [I.4]
Resp: 3.19

Req: Requested read-out: chromatographic logP. Entry: Cc1csc(-c2ccccc2CN(C(=O)c2c(C(F)F)nn(C)c2F)C2CC2)c1 [I.100]
Resp: 3.99

----------
Test: log P by HPLC on a reversed-phase column (C 18), EEC Directive 79/831 Annex V.A8
Type: physicochemical
Settings: HPLC on reversed-phase column (C 18), 40° C., 0.1% aqueous formic acid and acetonitrile, linear gradient 10% to 90% acetonitrile
Classify by measured logP: true (1) if it is equal to or exceeds 4, false (0) if it is smaller.

Req: Confirm if logP reported for the compound COc1ccsc1-c1cc(F)ccc1CN(C(=O)c1c(C(F)F)nn(C)c1F)C1CC1 is 4 or above.
Resp: false (0)

Req: Confirm if logP reported for the compound Cn1nc(C(F)F)c(C(=O)N(Cc2cc(Cl)ccc2C23CCCC2O3)C2CC2)c1F (stereo not drawn) is 4 or above.
Resp: false (0)

Req: Confirm if logP reported for the compound Cn1cc(C(=O)N(Cc2cc(Cl)ccc2-c2ccc(Cl)s2)C2CC2)c(C(F)F)c1 is 4 or above.
Resp: true (1)

Req: Confirm if logP reported for the compound Cn1nc(C(F)F)c(C(=O)N(Cc2cc(Cl)ccc2-c2csc3ccccc23)C2CC2)c1F is 4 or above.
Resp: true (1)

Req: Confirm if logP reported for the compound Cc1ccc(-c2ccn(C)c2)c(CN(C(=O)c2c(C(F)F)nn(C)c2F)C2CC2)c1 is 4 or above.
Resp: false (0)

Req: Confirm if logP reported for the compound Cc1csc(-c2ccc(C(C)C)c(CN(C(=O)c3c(C(F)F)nn(C)c3F)C3CC3)c2)c1 is 4 or above.
Resp: true (1)

New cases:
Req: Confirm if logP reported for the compound Cn1nc(C(F)F)c(C(=O)N(Cc2ccccc2C2COC2)C2CC2)c1Cl is 4 or above.
Resp: false (0)

Req: Confirm if logP reported for the compound Cc1ccc(-c2cscc2C)c(CN(C(=O)c2cn(C)nc2C(F)F)C2CC2)c1 is 4 or above.
Resp: false (0)

----------
Experiment: log P by HPLC on a reversed-phase column (C 18), EEC Directive 79/831 Annex V.A8
Assay type: physicochemical
Conditions: HPLC on reversed-phase column (C 18), 40° C., 0.1% aqueous formic acid and acetonitrile, linear gradient 10% to 90% acetonitrile
Measured Parameter: logP

Past entries and their recorded results:
Req: Requested read-out: logP. Entry: O=C(c1ccsc1I)N(Cc1cc(-c2ccco2)ccc1Cl)C1CC1 [I.41]
Resp: 4.61

Req: Requested read-out: logP. Entry: Cc1csc(-c2ccc(F)cc2CN(C(=O)c2c(C(F)F)nn(C)c2F)C2CC2)c1 [I.101]
Resp: 4.09

New cases:
Req: Requested read-out: logP. Entry: CC(C)c1ccc(-c2cn(C)c3ccccc23)cc1CN(C(=O)c1c(C(F)F)nn(C)c1F)C1CC1 [I.153]
Resp: 4.74

The origin of these recorded values is patent US10125126B2.
